Data origin, for the record: the supplement of paper PMC6555819

# System: PPARg DBDmut:RXRa IVT, anti-PPARg (DBD mutation: PPARg1 K132A/R137A, NR concentration 270 nM, RXRa partner concentration 90 nM)
# assay.overview: PBM binding z-score (relative to random genomic background probes); higher = stronger binding; sequences stand for … in GC…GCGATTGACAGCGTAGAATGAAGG
Catalogue of PBM binding z-score values
measurement.name: PBM binding z-score

{"seq": "TCTCGGAGGTCACGAAAGGTCAGAGCTCGACATC", "observed.result": 1.39}
{"seq": "TCTAGTAGGTCAAAGGTCACACACTCGAAATGCG", "observed.result": 6.06}
{"seq": "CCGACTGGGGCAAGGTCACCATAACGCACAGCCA", "observed.result": 0.00337}
{"seq": "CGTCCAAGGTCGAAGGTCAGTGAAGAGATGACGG", "observed.result": -0.273}
{"seq": "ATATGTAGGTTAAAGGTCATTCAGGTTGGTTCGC", "observed.result": 4.82}
{"seq": "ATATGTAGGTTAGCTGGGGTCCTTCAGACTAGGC", "observed.result": 1.74}
{"seq": "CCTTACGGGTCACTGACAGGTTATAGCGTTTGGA", "observed.result": -0.0392}
{"seq": "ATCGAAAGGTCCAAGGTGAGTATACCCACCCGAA", "observed.result": 0.0343}
{"seq": "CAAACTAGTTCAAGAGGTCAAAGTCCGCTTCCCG", "observed.result": -0.123}

----------
# Test system: PPARg:RXRa 30nM:10nM, anti-RXR (NR concentration 30 nM, RXRa partner concentration 10 nM)
# assay.overview: PBM binding z-score (relative to random genomic background probes); higher = stronger binding; sequences stand for … in GC…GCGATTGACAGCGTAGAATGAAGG
Rule: PBM binding z-score of 2 or more gives satisfied; anything lower gives not satisfied.

{"seq": "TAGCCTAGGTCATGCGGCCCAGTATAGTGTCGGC", "system.under.test": "PPARg:RXRa 30nM:10nM, anti-RXR (NR concentration 30 nM, RXRa partner concentration 10 nM)", "discrete.label": "not satisfied"}
{"seq": "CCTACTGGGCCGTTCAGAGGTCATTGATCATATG", "system.under.test": "PPARg:RXRa 30nM:10nM, anti-RXR (NR concentration 30 nM, RXRa partner concentration 10 nM)", "discrete.label": "not satisfied"}
{"seq": "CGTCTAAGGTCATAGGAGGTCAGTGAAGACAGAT", "system.under.test": "PPARg:RXRa 30nM:10nM, anti-RXR (NR concentration 30 nM, RXRa partner concentration 10 nM)", "discrete.label": "satisfied"}
{"seq": "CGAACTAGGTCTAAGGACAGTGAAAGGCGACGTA", "system.under.test": "PPARg:RXRa 30nM:10nM, anti-RXR (NR concentration 30 nM, RXRa partner concentration 10 nM)", "discrete.label": "not satisfied"}
{"seq": "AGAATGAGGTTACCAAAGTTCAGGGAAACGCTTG", "system.under.test": "PPARg:RXRa 30nM:10nM, anti-RXR (NR concentration 30 nM, RXRa partner concentration 10 nM)", "discrete.label": "not satisfied"}
{"seq": "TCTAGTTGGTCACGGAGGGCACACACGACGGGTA", "system.under.test": "PPARg:RXRa 30nM:10nM, anti-RXR (NR concentration 30 nM, RXRa partner concentration 10 nM)", "discrete.label": "satisfied"}
{"seq": "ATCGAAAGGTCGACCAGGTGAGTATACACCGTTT", "system.under.test": "PPARg:RXRa 30nM:10nM, anti-RXR (NR concentration 30 nM, RXRa partner concentration 10 nM)", "discrete.label": "not satisfied"}
{"seq": "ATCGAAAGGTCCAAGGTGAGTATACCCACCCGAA", "system.under.test": "PPARg:RXRa 30nM:10nM, anti-RXR (NR concentration 30 nM, RXRa partner concentration 10 nM)", "discrete.label": "not satisfied"}
{"seq": "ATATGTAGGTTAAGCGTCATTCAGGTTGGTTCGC", "system.under.test": "PPARg:RXRa 30nM:10nM, anti-RXR (NR concentration 30 nM, RXRa partner concentration 10 nM)", "discrete.label": "satisfied"}
{"seq": "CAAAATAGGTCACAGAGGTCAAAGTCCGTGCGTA", "system.under.test": "PPARg:RXRa 30nM:10nM, anti-RXR (NR concentration 30 nM, RXRa partner concentration 10 nM)", "discrete.label": "satisfied"}
{"seq": "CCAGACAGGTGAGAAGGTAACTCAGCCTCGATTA", "system.under.test": "PPARg:RXRa 30nM:10nM, anti-RXR (NR concentration 30 nM, RXRa partner concentration 10 nM)", "discrete.label": "not satisfied"}
{"seq": "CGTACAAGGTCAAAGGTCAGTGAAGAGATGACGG", "system.under.test": "PPARg:RXRa 30nM:10nM, anti-RXR (NR concentration 30 nM, RXRa partner concentration 10 nM)", "discrete.label": "satisfied"}
